assay-info: Unbound brain-to-plasma concentration ratio in ICR mouse at 10 mg/kg, po measured after 60 mins by LC-MS/MS analysis
Format: ADME, organism-based
measurement-context: read-out: K(p,uu,brain)
Would you mind telling me the reported Kp uu at 1 h of each entry?
Give the value as a plain number.

### Prompt Param item = Cc1cc2c(c(-c3ccccc3OCC(F)(F)F)n1)CN(c1ccc(C(C)(C)O)cc1)C2=O ; retrieve measured Kp uu at 1 h.
### Response 0.11

### Prompt // repeat for CC(C)(O)c1ccc(N2Cc3c(cc(C4(C)COC4)nc3-c3ccccc3OCC(F)(F)F)C2=O)cc1 and report
### Response 0.04

### Prompt Moving on to the next compound: CC(C)(O)c1ccc(N2Cc3c(cc(C4(C)COC4)nc3-c3ccccc3OCC(F)F)C2=O)cc1
### Response 0.03

###

Provide the reported chromatographic logD of each item.
assay-info: 1-Octanol/aqueous buffer partition coefficient, logD of the compound at pH 7.4 by chromatographic method
Assay type: physicochemical
Could you respond with only the numeric value?

### Prompt Endpoint output: chromatographic logD of Cc1cc2c(c(-c3ccccc3OCC(F)(F)F)n1)CN(c1ccc(C(C)(C)O)cc1)C2=O . Value?
### Response 2.85

### Prompt Another compound: CC(C)(O)c1ccc(N2Cc3c(cc(C4CCCCC4)nc3-c3ccccc3OCC(F)F)C2=O)cc1
### Response 4.63

### Prompt Record: CC(C)(O)c1ccc(N2Cc3c(cc(C(C)(C)O)nc3-c3ccccc3OCC(F)F)C2=O)cc1
### Response 2.77

### Prompt Next compound up: CN(C)C(=O)c1cc2c(c(-c3ccccc3OCC(F)F)n1)CN(c1ccc(C(C)(C)O)cc1)C2=O
### Response 1.85

### Prompt And then Cc1cc2c(c(-c3ccccc3OCC(F)F)n1)CN(c1ccc(C(C)(C)O)cc1)C2=O , what is it?
### Response 2.69

### Prompt Also need CC(C)(O)c1ccc(N2Cc3c(cc(C(C)(C)F)nc3-c3ccccc3OCC(F)F)C2=O)cc1 , thanks.
### Response 3.69

### Prompt Item: CC(C)(O)c1ccc(N2Cc3c(cc(C4CCCOC4)nc3-c3ccccc3OCC(F)F)C2=O)cc1 (racemic)
### Response 3.19

### Prompt Moving on to CC(C)(O)c1ccc(N2Cc3c(cc(C(F)F)nc3-c3ccccc3OCC(F)F)C2=O)cc1
### Response 2.86

### Prompt Also CC(C)(O)c1ccc(N2Cc3c(cc(C4CCOCC4)nc3-c3ccccc3OCC(F)F)C2=O)cc1 ?
### Response 2.98

### Prompt Repeat for the following compound: CC(C)(O)c1ccc(N2Cc3c(cc(C4(C)COC4)nc3-c3ccccc3OCC(F)(F)F)C2=O)cc1
### Response 2.9

### Prompt Also CC(C)(O)c1ccc(N2Cc3c(ccnc3-c3ccccc3OCC(F)(F)F)C2=O)cc1 ?
### Response 2.37

### Prompt One more compound: CC(C)(O)c1ccc(N2Cc3c(cc(C4(C)COC4)nc3-c3ccccc3OCC(F)F)C2=O)cc1
### Response 2.76

### Prompt Item: CC(C)(O)c1ccc(N2Cc3c(ccnc3-c3ccccc3OCC(F)F)C2=O)cc1
### Response 2.2

###

assay-info: Metabolic stability in mouse liver microsomes assessed as intrinsic clearance at 1 uM in the presence of NADPH regenerating system by LC/MS/MS analysis
Type: ADME, Microsome
measurement-context: read-out: CLH
Lab note: anything with microsomal CLint at 1 µM below 30 µL/min/mg is marked rule met; values at 30 µL/min/mg or higher are marked rule not met.

### Prompt Strictly below 30 µL/min/mg in microsomal CLint at 1 µM? CC(C)(O)c1ccc(N2Cc3c(cc(C4CCCOC4)nc3-c3ccccc3OCC(F)F)C2=O)cc1 (racemic)
### Response rule not met

### Prompt Next molecule: CC(C)(O)c1ccc(N2Cc3c(cc(C(C)(C)F)nc3-c3ccccc3OCC(F)F)C2=O)cc1
### Response rule met

### Prompt Now consider CC(C)(O)c1ccc(N2Cc3c(cc(C4(C)COC4)nc3-c3ccccc3OCC(F)(F)F)C2=O)cc1 .
### Response rule not met

### Prompt Now this one: CC(C)(O)c1ccc(N2Cc3c(cc(C4CCOCC4)nc3-c3ccccc3OCC(F)F)C2=O)cc1
### Response rule met

### Prompt Another: Cc1cc2c(c(-c3ccccc3OCC(F)(F)F)n1)CN(c1ccc(C(C)(C)O)cc1)C2=O
### Response rule met

### Prompt Now the same for Cc1cc2c(c(-c3ccccc3OCC(F)F)n1)CN(c1ccc(C(C)(C)O)cc1)C2=O
### Response rule met

### Prompt Can you handle CC(C)(O)c1ccc(N2Cc3c(cc(C4CCCCC4)nc3-c3ccccc3OCC(F)F)C2=O)cc1 next?
### Response rule not met

### Prompt Please answer likewise for CC(C)(O)c1ccc(N2Cc3c(ccnc3-c3ccccc3OCC(F)(F)F)C2=O)cc1
### Response rule met

### Prompt // query: CC(C)(O)c1ccc(N2Cc3c(ccnc3-c3ccccc3OCC(F)F)C2=O)cc1
### Response rule met

### Prompt Note, next up: CC(C)(O)c1ccc(N2Cc3c(cc(C4(C)COC4)nc3-c3ccccc3OCC(F)F)C2=O)cc1
### Response rule not met

The reported measurements were obtained from ChEMBL document CHEMBL5150036.
